Provenance of the data: ChEMBL document CHEMBL1208670

Tested on: Bacillus subtilis
experiment summary: Antibacterial activity against Bacillus subtilis by twofold serial dilution method
Assay type: functional
quantity measured: MIC (µg/mL)

structure_smiles_string=CC1(C)S[C@@H]2[C@H](NC(=O)Cc3ccccc3)C(=O)N2[C@H]1C(=O)O quantity_measured=MIC measurement=1.53
structure_smiles_string=COc1ccc(-n2nc(C)n(CCSc3ccc(N)cc3)c2=O)cc1 quantity_measured=MIC measurement=75
structure_smiles_string=COc1ccc(-n2nc(C)n(CCSc3ccc(F)cc3)c2=O)cc1 quantity_measured=MIC measurement=150
structure_smiles_string=COc1ccc(-n2nc(C)n(CCS(=O)(=O)c3ccccc3F)c2=O)cc1 quantity_measured=MIC measurement=150
structure_smiles_string=COc1ccc(-n2nc(C)n(CCS(=O)(=O)c3cccc(C(F)(F)F)c3)c2=O)cc1 quantity_measured=MIC measurement=37.5
structure_smiles_string=COc1ccc(-n2nc(C)n(CCS(=O)(=O)c3ccc(Br)cc3)c2=O)cc1 quantity_measured=MIC measurement=75

###

Quick reference for MIC among some compounds
Tested on: Escherichia coli
experiment summary: Antibacterial activity against Escherichia coli by twofold serial dilution method
Format: functional
quantity measured: MIC (µg/mL)

structure_smiles_string=COc1ccc(-n2nc(C)n(CCS(=O)(=O)c3ccccc3)c2=O)cc1 measurement=150
structure_smiles_string=COc1ccc(-n2nc(C)n(CCSc3ccccc3)c2=O)cc1 measurement=37.5
structure_smiles_string=COc1ccc(-n2nc(C)n(CCSc3ccc(F)cc3)c2=O)cc1 measurement=150
structure_smiles_string=COc1ccc(-n2nc(C)n(CCS(=O)(=O)c3cccc(C(F)(F)F)c3)c2=O)cc1 measurement=37.5
structure_smiles_string=COc1ccc(-n2nc(C)n(CCS(=O)(=O)c3ccc(Br)cc3)c2=O)cc1 measurement=150

###

System: Rhizopus arrhizus
experiment summary: Antifungal activity against Rhizopus oryzae by twofold serial dilution method
Type: functional
Reported log10 MIC by item:
quantity measured: log10 MIC (log10 of the value in µg/mL)

compound=COc1ccc(-n2nc(C)n(CCSc3ccc(N)cc3)c2=O)cc1 experimental_system="Rhizopus arrhizus" quantity_measured="log10 MIC" measurement=1.57
compound=COc1ccc(-n2nc(C)n(CCS(=O)(=O)c3cccc(F)c3)c2=O)cc1 experimental_system="Rhizopus arrhizus" quantity_measured="log10 MIC" measurement=1.57
compound="C[C@@H]1[C@H](O)[C@@H](C)/C=C/C=C/C=C/C=C/C=C/C=C/C=C/[C@H](O[C@@H]2O[C@H](C)[C@@H](O)[C@H](N)[C@@H]2O)C[C@@H]2O[C@](O)(C[C@@H](O)C[C@@H](O)[C@H](O)CC[C@@H](O)C[C@@H](O)CC(=O)O[C@H]1C)C[C@H](O)[C@H]2C(=O)O [AMPHOTERICIN B]" experimental_system="Rhizopus arrhizus" quantity_measured="log10 MIC" measurement=0.19
compound=COc1ccc(-n2nc(C)n(CCS(=O)(=O)c3ccccc3)c2=O)cc1 experimental_system="Rhizopus arrhizus" quantity_measured="log10 MIC" measurement=2.18
compound=COc1ccc(-n2nc(C)n(CCSc3cccc(OC)c3)c2=O)cc1 experimental_system="Rhizopus arrhizus" quantity_measured="log10 MIC" measurement=1.57
compound=COc1ccc(-n2nc(C)n(CCS(=O)(=O)c3ccc(F)cc3)c2=O)cc1 experimental_system="Rhizopus arrhizus" quantity_measured="log10 MIC" measurement=1.88
compound=COc1ccc(-n2nc(C)n(CCSc3cccc(F)c3)c2=O)cc1 experimental_system="Rhizopus arrhizus" quantity_measured="log10 MIC" measurement=1.57
compound=COc1ccc(-n2nc(C)n(CCS(=O)(=O)c3cccc(C(F)(F)F)c3)c2=O)cc1 experimental_system="Rhizopus arrhizus" quantity_measured="log10 MIC" measurement=1.88
compound=COc1ccc(-n2nc(C)n(CCS(=O)(=O)c3ccccc3F)c2=O)cc1 experimental_system="Rhizopus arrhizus" quantity_measured="log10 MIC" measurement=1.27
compound=COc1ccc(-n2nc(C)n(CCS(=O)(=O)c3ccc(Br)cc3)c2=O)cc1 experimental_system="Rhizopus arrhizus" quantity_measured="log10 MIC" measurement=1.57
compound=COc1ccc(-n2nc(C)n(CCSc3cccc(C(F)(F)F)c3)c2=O)cc1 experimental_system="Rhizopus arrhizus" quantity_measured="log10 MIC" measurement=1.27
compound=COc1ccc(-n2nc(C)n(CCSc3ccccc3)c2=O)cc1 experimental_system="Rhizopus arrhizus" quantity_measured="log10 MIC" measurement=1.88
compound=COc1ccc(-n2nc(C)n(CCSc3ccccc3F)c2=O)cc1 experimental_system="Rhizopus arrhizus" quantity_measured="log10 MIC" measurement=0.99
compound=COc1ccc(-n2nc(C)n(CCSc3nnc(-c4ccc(Cl)cc4)o3)c2=O)cc1 experimental_system="Rhizopus arrhizus" quantity_measured="log10 MIC" measurement=2.18
compound=COc1ccc(-n2nc(C)n(CCSc3ccc(F)cc3)c2=O)cc1 experimental_system="Rhizopus arrhizus" quantity_measured="log10 MIC" measurement=2.18
compound=COc1ccc(-n2nc(C)n(CCSc3ccc(Br)cc3)c2=O)cc1 experimental_system="Rhizopus arrhizus" quantity_measured="log10 MIC" measurement=1.88

###

Tested on: Escherichia coli
experiment summary: Antibacterial activity against Escherichia coli by twofold serial dilution method
Type: functional
quantity measured: MIC (µg/mL)

structure_smiles_string=COc1ccc(-n2nc(C)n(CCSc3ccc(Br)cc3)c2=O)cc1 measurement=150
structure_smiles_string=CC1(C)S[C@@H]2[C@H](NC(=O)Cc3ccccc3)C(=O)N2[C@H]1C(=O)O measurement=7.81
structure_smiles_string=COc1ccc(-n2nc(C)n(CCSc3cccc(OC)c3)c2=O)cc1 measurement=18.8

###

Test system: Escherichia coli
experiment summary: Antibacterial activity against Escherichia coli by twofold serial dilution method
Format: functional
# if measured MIC < 80 µg/mL: yes  # else: no

compound=COc1ccc(-n2nc(C)n(CCSc3cccc(C(F)(F)F)c3)c2=O)cc1 category_label=yes
compound=COc1ccc(-n2nc(C)n(CCSc3ccccc3F)c2=O)cc1 category_label=yes
compound="CN[C@@H]1[C@H](O[C@H]2[C@H](O[C@H]3[C@H](O)[C@@H](O)[C@H](N=C(N)N)[C@@H](O)[C@@H]3N=C(N)N)O[C@@H](C)[C@]2(O)C=O)O[C@@H](CO)[C@H](O)[C@H]1O [STREPTOMYCIN]" category_label=yes
compound=COc1ccc(-n2nc(C)n(CCSc3nnc(-c4ccc(Cl)cc4)o3)c2=O)cc1 category_label=no
compound=COc1ccc(-n2nc(C)n(CCSc3cccc(F)c3)c2=O)cc1 category_label=no
compound=COc1ccc(-n2nc(C)n(CCS(=O)(=O)c3cccc(F)c3)c2=O)cc1 category_label=yes
compound=COc1ccc(-n2nc(C)n(CCS(=O)(=O)c3ccc(F)cc3)c2=O)cc1 category_label=yes
compound=COc1ccc(-n2nc(C)n(CCSc3ccc(N)cc3)c2=O)cc1 category_label=no
compound=COc1ccc(-n2nc(C)n(CCS(=O)(=O)c3ccccc3F)c2=O)cc1 category_label=no

###

Test system: Pseudomonas aeruginosa
experiment summary: Antibacterial activity against Pseudomonas aeruginosa by twofold serial dilution method
Type: functional
quantity measured: log10(MIC) (log10 of the value in µg/mL)

structure_smiles_string=COc1ccc(-n2nc(C)n(CCSc3cccc(C(F)(F)F)c3)c2=O)cc1 quantity_measured=log10(MIC) measurement=1.88
structure_smiles_string=COc1ccc(-n2nc(C)n(CCSc3ccccc3)c2=O)cc1 quantity_measured=log10(MIC) measurement=1.88
structure_smiles_string=COc1ccc(-n2nc(C)n(CCS(=O)(=O)c3ccccc3)c2=O)cc1 quantity_measured=log10(MIC) measurement=1.88
structure_smiles_string=COc1ccc(-n2nc(C)n(CCSc3cccc(OC)c3)c2=O)cc1 quantity_measured=log10(MIC) measurement=1.88
structure_smiles_string=COc1ccc(-n2nc(C)n(CCSc3nnc(-c4ccc(Cl)cc4)o3)c2=O)cc1 quantity_measured=log10(MIC) measurement=2.18
structure_smiles_string=COc1ccc(-n2nc(C)n(CCS(=O)(=O)c3ccccc3F)c2=O)cc1 quantity_measured=log10(MIC) measurement=1.57
structure_smiles_string=COc1ccc(-n2nc(C)n(CCS(=O)(=O)c3cccc(F)c3)c2=O)cc1 quantity_measured=log10(MIC) measurement=2.18
structure_smiles_string=COc1ccc(-n2nc(C)n(CCSc3ccc(F)cc3)c2=O)cc1 quantity_measured=log10(MIC) measurement=1.88
structure_smiles_string=COc1ccc(-n2nc(C)n(CCS(=O)(=O)c3ccc(F)cc3)c2=O)cc1 quantity_measured=log10(MIC) measurement=1.88
structure_smiles_string=COc1ccc(-n2nc(C)n(CCSc3ccccc3F)c2=O)cc1 quantity_measured=log10(MIC) measurement=1.57
structure_smiles_string=COc1ccc(-n2nc(C)n(CCSc3ccc(N)cc3)c2=O)cc1 quantity_measured=log10(MIC) measurement=2.18
structure_smiles_string=CN[C@@H]1[C@H](O[C@H]2[C@H](O[C@H]3[C@H](O)[C@@H](O)[C@H](N=C(N)N)[C@@H](O)[C@@H]3N=C(N)N)O[C@@H](C)[C@]2(O)C=O)O[C@@H](CO)[C@H](O)[C@H]1O quantity_measured=log10(MIC) measurement=0.49
structure_smiles_string=CC1(C)S[C@@H]2[C@H](NC(=O)Cc3ccccc3)C(=O)N2[C@H]1C(=O)O quantity_measured=log10(MIC) measurement=1.10
structure_smiles_string=COc1ccc(-n2nc(C)n(CCS(=O)(=O)c3ccc(Br)cc3)c2=O)cc1 quantity_measured=log10(MIC) measurement=2.18
structure_smiles_string=COc1ccc(-n2nc(C)n(CCS(=O)(=O)c3cccc(C(F)(F)F)c3)c2=O)cc1 quantity_measured=log10(MIC) measurement=1.27
structure_smiles_string=COc1ccc(-n2nc(C)n(CCSc3ccc(Br)cc3)c2=O)cc1 quantity_measured=log10(MIC) measurement=1.88
structure_smiles_string=COc1ccc(-n2nc(C)n(CCSc3cccc(F)c3)c2=O)cc1 quantity_measured=log10(MIC) measurement=1.57
